- Target or system: Recombinant human TYK2 catalytic domain (amino acids 871-1187) (Homo sapiens, UniProt P29597)
- Construct: catalytic domain (amino acids 871-1187)
- Sequence (P29597 871-1187): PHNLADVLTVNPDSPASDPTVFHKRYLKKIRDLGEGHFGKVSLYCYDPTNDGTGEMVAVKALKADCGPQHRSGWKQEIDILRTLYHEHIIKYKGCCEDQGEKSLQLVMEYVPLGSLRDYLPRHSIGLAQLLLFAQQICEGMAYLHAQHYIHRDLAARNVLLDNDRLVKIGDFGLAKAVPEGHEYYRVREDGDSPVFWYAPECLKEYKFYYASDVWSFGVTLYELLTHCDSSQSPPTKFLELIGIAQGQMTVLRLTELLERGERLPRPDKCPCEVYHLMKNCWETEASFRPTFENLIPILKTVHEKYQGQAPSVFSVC
- Procedure text: TYK2 radioactive assay polyGT substrate; further: 0.1 µM ATP
- Format: biochemical
Where a name gives a salt, the structure may show the parent alone.
Endpoint label: IC50 (nM)

Worked examples follow.
Compound	Uom	Assay value
COCC1CN(C(=O)c2ccc(Nc3cc(Oc4cnc(C#N)cc4C)nc4c3ncn4C)nc2)C1 [Compound 104]	nM	2.88
Cc1cc(C#N)ncc1Oc1cc(Nc2ccc(CN(C)CCN(C)C)cn2)c2ncn(C)c2n1 [Compound 83, formate salt]	nM	16.3
CCNC(=O)c1ccc(Nc2cc(Oc3cnc(C#N)cc3C)nc3c2ncn3C)cn1 [Compound 26]	nM	74
Cc1cc(C#N)ncc1Oc1cc(Nc2ccc(N3CCC(CO)CC3)cn2)c2ncn(C)c2n1 [Compound 184]	nM	6.42

(P) CCNC(=O)Cc1ccc(Nc2cc(Oc3cnc(C#N)cc3C)nc3c2ncn3C)cc1 [Compound 27]
(Q) CC(C)[C@@H](Nc1cc(Nc2ccc(C(=O)N(C)C)cn2)c2ncn(C)c2n1)C(F)(F)F [Compound 97]
Ask | Recorded IC50 values differ for P and Q ; which one is higher? Returns: label corresponding to the selected item.
Reply | P

(1) Cc1cc(C#N)ncc1Oc1cc(Nc2ccc(C(=O)N3CCO[C@@H](C)C3)cn2)c2ncn(C)c2n1 [Compound 144]
(2) COCCNc1cc(Nc2cc(Oc3cnc(C#N)cc3C)nc3c2ncn3C)ncn1 [Compound 31]
Ask | Select the item whose IC50 value is smaller, choosing between 1 and 2 . Returns: label corresponding to the selected item.
Reply | 1

###

- Test system: IL-12 activation of STAT4 in NK-92 cells
- Procedure text: IL-12 activation of STAT4 in NK-92 cells using AphaLISA SureFire technology
- Type: cell-based
- Test conditions: Homo sapiens, NK92; IL-12 activation of STAT4 in NK-92 cells, AlphaLISA SureFire; average IC50; read-out: IL12 pSTAT4 IC50
Counter-ions that a name gives are not always drawn.
Endpoint label: IC50 (nM)

Worked examples follow.
Molecule	Target or system	Endpoint label	Uom	Assay value
Cc1cc(C#N)ncc1Oc1cc(Nc2ccc(S(=O)(=O)C(F)F)cc2)c2ncn(C)c2n1	IL-12 activation of STAT4 in NK-92 cells	IC50	nM	122
Cc1cc(C#N)ncc1Oc1cc(Nc2ccc(N3CCN(C)CC3)cn2)c2ncn(C)c2n1	IL-12 activation of STAT4 in NK-92 cells	IC50	nM	248
Cc1cc(C#N)ncc1Oc1cc(Nc2ccc(N3C[C@@H](C)O[C@@H](C)C3)nn2)c2ncn(C)c2n1	IL-12 activation of STAT4 in NK-92 cells	IC50	nM	49

(a) Cc1cc(C#N)ncc1Oc1cc(Nc2ccc(C3(O)COC3)cc2)c2ncn(C)c2n1
(b) Cc1cc(C#N)ncc1Oc1cc(Nc2ccc(CN(C)C)cn2)c2ncn(C)c2n1 [Compound 81, formate salt]
Ask | Recorded IC50 values differ for a and b ; which one is higher? Returns: label corresponding to the selected item.
Reply | a

(a) Cc1cc(C#N)ncc1Oc1cc(Nc2ccc(C(=O)N3CC[C@H](N(C)C)C3)cn2)c2ncn(C)c2n1
(b) CC(C)C(Nc1cc(Nc2ccc(S(C)(=O)=O)cn2)c2ncn(C)c2n1)C(F)(F)F (centres unmarked)
Ask | Recorded IC50 values differ for a and b ; which one is higher? Returns: label corresponding to the selected item.
Reply | a
